# MEASURED ON: Ybr033w (UniProt P38073)
# Sequence: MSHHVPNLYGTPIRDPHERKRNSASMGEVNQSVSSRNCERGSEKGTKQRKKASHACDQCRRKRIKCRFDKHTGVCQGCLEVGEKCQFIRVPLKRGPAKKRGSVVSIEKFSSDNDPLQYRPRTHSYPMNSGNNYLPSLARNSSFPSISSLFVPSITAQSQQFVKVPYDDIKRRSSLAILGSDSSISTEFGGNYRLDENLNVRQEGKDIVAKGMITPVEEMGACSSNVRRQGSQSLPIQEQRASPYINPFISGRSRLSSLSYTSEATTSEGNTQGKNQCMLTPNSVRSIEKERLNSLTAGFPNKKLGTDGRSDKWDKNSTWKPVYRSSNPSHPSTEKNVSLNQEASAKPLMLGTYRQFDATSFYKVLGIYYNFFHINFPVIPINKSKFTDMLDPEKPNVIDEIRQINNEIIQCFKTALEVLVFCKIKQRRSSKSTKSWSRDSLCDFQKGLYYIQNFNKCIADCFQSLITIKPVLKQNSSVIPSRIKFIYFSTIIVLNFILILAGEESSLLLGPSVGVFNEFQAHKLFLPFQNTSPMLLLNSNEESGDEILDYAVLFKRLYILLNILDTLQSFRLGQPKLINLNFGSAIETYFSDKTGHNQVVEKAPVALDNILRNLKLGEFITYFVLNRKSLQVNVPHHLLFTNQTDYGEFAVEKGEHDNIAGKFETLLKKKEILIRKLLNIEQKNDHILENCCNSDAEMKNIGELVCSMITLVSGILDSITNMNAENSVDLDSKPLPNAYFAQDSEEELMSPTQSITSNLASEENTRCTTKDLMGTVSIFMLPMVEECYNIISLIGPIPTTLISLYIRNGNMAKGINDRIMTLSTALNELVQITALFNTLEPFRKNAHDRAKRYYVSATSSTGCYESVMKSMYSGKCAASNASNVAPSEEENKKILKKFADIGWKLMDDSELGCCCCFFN
# ASSAY OVERVIEW: PBM E-score (8-mer binding enrichment) (E-score (-0.5 to 0.5)); higher = stronger / more preferred TF binding
# MEASUREMENT PARAMETERS: protein concentration: 200 nM; construct: GST-full length
Over roughly 33,000 sequences, “E-score (-0.5 to 0.5)” has its median near -0.012; the highest 2% begin near 0.29. This is one part of a sample in which the highest values are shown more often than they occur.
# PBM E-score per entry
Give the value as a plain number.

RESIDUE STRING | PBM E-score
AAAATACG | 0.171
TATACTGA | 0.351
AATATAAT | 0.236
TACCGGAA | 0.27
AAAATAAC | 0.189

Lookup result for ATCTGGGC ; measured PBM E-score: -0.0818

Lookup result for CAAATACC ; measured PBM E-score: 0.112

Lookup result for GATACTGA ; measured PBM E-score: 0.0886

Lookup result for AGCCAGGG ; measured PBM E-score: -0.362
